assay: Plasma pharmacokinetics of lesogaberan during 24-h dosing; assay type: in vivo, human; conditions: human, plasma, oral, 30 mg, evening dose, plasma, patients; read-out: C max evening, geometric mean
PARAMETER MEASURED: Cmax (nM)
Number in nM, nothing else.

Task item: Reported Cmax, compound NC[C@@H](F)C[PH](=O)O [lesogaberan] : ____
Reply: 420

---

test: Plasma pharmacokinetics of lesogaberan during 24-h dosing; assay type: in vivo, human; details: human, plasma, oral, 120 mg, evening dose, plasma, patients; read-out: C max evening, geometric mean
PARAMETER MEASURED: Cmax
Note: state the figure and append the unit.

Task item: Reported Cmax, compound NC[C@@H](F)C[PH](=O)O : ____
Reply: 2210 nM

---

assay: Plasma pharmacokinetics of lesogaberan during 24-h dosing; assay type: in vivo, human; settings: human, plasma, oral, 90 mg, evening dose, plasma, patients; read-out: t max evening, geometric mean
PARAMETER MEASURED: Tmax (h)
Number in h, nothing else.

Task item: Reported Tmax, molecule NC[C@@H](F)C[PH](=O)O : ____
Reply: 1.9

---

Test: Plasma pharmacokinetics of lesogaberan during 24-h dosing
Type: in vivo, human
Details: human, plasma, oral, 120 mg, evening dose, plasma, patients; read-out: t max evening, geometric mean
Protocol: Blood samples were taken 1 h before the first administration of each dose, and at regular intervals during the 24-h period after the first administration of each dose, to assess the concentration of lesogaberan in plasma over time. […]
PARAMETER MEASURED: Tmax (h)
Number in h, nothing else.

Task item: Reported Tmax, compound NC[C@@H](F)C[PH](=O)O : ____
Reply: 1.9

---

experiment: Plasma pharmacokinetics of lesogaberan during 24-h dosing; assay type: in vivo, human; conditions: human, plasma, oral, 120 mg, morning dose, plasma, patients; read-out: C max morning, geometric mean
PARAMETER MEASURED: Cmax
Note: state the figure and append the unit.

Task item: Reported Cmax, molecule NC[C@@H](F)C[PH](=O)O [lesogaberan] : ____
Reply: 1480 nM

---

experiment: Plasma pharmacokinetics of lesogaberan during 24-h dosing; assay type: in vivo, human; details: human, plasma, oral, 90 mg, evening dose, plasma, patients; read-out: C max evening, geometric mean
PARAMETER MEASURED: Cmax (nM)
Number in nM, nothing else.

Task item: Reported Cmax, molecule NC[C@@H](F)C[PH](=O)O : ____
Reply: 1680

---

assay: Plasma pharmacokinetics of lesogaberan during 24-h dosing; type: in vivo, human; conditions: human, plasma, oral, 120 mg, morning dose, plasma, patients; read-out: t max morning, geometric mean
PARAMETER MEASURED: Tmax

Task item: Reported Tmax, compound NC[C@@H](F)C[PH](=O)O : ____
Reply: 1.9 h

---

assay: Plasma pharmacokinetics of lesogaberan during 24-h dosing; assay type: in vivo, human; settings: human, plasma, oral, 240 mg, morning dose, plasma, patients; read-out: t max morning, geometric mean
PARAMETER MEASURED: Tmax (h)
Number in h, nothing else.

Task item: Reported Tmax, molecule NC[C@@H](F)C[PH](=O)O : ____
Reply: 1.7

---

assay: Plasma pharmacokinetics of lesogaberan during 24-h dosing; format: in vivo, human; settings: human, plasma, oral, 240 mg, evening dose, plasma, patients; read-out: t max evening, geometric mean
PARAMETER MEASURED: Tmax (h)
Number in h, nothing else.

Task item: Reported Tmax, compound NC[C@@H](F)C[PH](=O)O [lesogaberan] : ____
Reply: 2.6
